# System: human APOE RNA
# ASSAY_NAME: Dose-dependent inhibition of human APOE RNA in HepG2 cells, electroporation, 50,000 cells per well, RT-PCR normalized to GAPDH (Example 4, Tables 8-10)
# Assay type: cell-based
# ASSAY_SETUP: 205 nM; HepG2, electroporation, 16-hour treatment
Strand notation (5' to 3'): a small letter for the sugar, then the base; units joined by * are phosphorothioate-linked, units joined directly phosphodiester-linked; [ ] holds rarer units or linkages, { } end groups; capitals alone tell only the bases. e = 2'-O-(2-methoxyethyl) (MOE); k = constrained ethyl (cEt); [5mC] = 5-methylcytosine; d = 2'-deoxy (DNA)
PROPERTY_LABEL: APOE RNA (% UTC)
Express it in % UTC; write the number only.

1757541: mixed MOE/cEt gapmer TTGGTGAATCTTTATTAA, sugar eeeekddddddddeeeee, linkages soossssssssssooss (eT*eTeGeG*kT*dG*dA*dA*dT*d[5mC]*dT*dT*dT*eAeTeT*eA*eA) [compound 1757541] : 91

INPUT: What APOE RNA (% UTC) appears in the records for this substance with human APOE RNA? Compound No. 1517891: comparator of WO 2022/066956; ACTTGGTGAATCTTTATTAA, sugar eeeeeddddddddddeeeee, linkages sooosssssssssssooss (MOE gapmer, mixed PS/PO linkages, chemistry not fully specified) [reference compound]
OUTPUT: 65

* * *

# Test system: human APOE RNA
# ASSAY_NAME: Dose-dependent inhibition of human APOE RNA in HepG2 cells, electroporation, 50,000 cells per well, RT-PCR normalized to GAPDH (Example 4, Tables 8-10)
# Assay type: cell-based
# ASSAY_SETUP: 13 nM; HepG2, electroporation, 16-hour treatment
Strand notation (5' to 3'): a small letter for the sugar, then the base; units joined by * are phosphorothioate-linked, units joined directly phosphodiester-linked; [ ] holds rarer units or linkages, { } end groups; capitals alone tell only the bases. [ms] = mesyl phosphoramidate linkage; e = 2'-O-(2-methoxyethyl) (MOE); k = constrained ethyl (cEt); [5mC] = 5-methylcytosine; d = 2'-deoxy (DNA)
PROPERTY_LABEL: APOE RNA (% UTC)
Express it in % UTC; write the number only.

Solved cases (5 shown):
1757582 (eT*eTeGkGkT*dG*dA*dA*dT*d[5mC]*dT*dT*dT*dA*dT*eTeAeA*eA*e[5mC]; antisense) [Compound 1757582] : 107
1757574 (eA*e[5mC]eTeT*eG*eG*dT*dG[ms]dA[ms]dA[ms]dT*d[5mC]*dT*dT*dT*dA[ms]kT*kT*eA*eA; antisense) [Compound 1757574] : 80
1757571 (eA*e[5mC]eTeT*eG*kG*dT*dG[ms]dA[ms]dA[ms]dT*d[5mC]*dT*dT*dT*dA[ms]eT*eT*eA*eA; antisense) [Compound 1757571] : 86
1757559: mixed MOE/cEt gapmer TTGGTGAATCTTTATTAA, sugar eeeekddddddddkeeee, linkages soossssssssssooss (eT*eTeGeG*kT*dG*dA*dA*dT*d[5mC]*dT*dT*dT*kAeTeT*eA*eA) [compound 1757559] : 80
1757551: mixed MOE/cEt gapmer TTGGTGAATCTTTATTAA, sugar eeekkddddddddeeeee, linkages soossssssssssooss (eT*eTeGkG*kT*dG*dA*dA*dT*d[5mC]*dT*dT*dT*eAeTeT*eA*eA) [compound 1757551] : 248

For the next question, use this substance.
INPUT: APOE RNA (% UTC) for 1757569 (eA*e[5mC]eTkTkG*dG*dT*dG*dA*dA*dT*d[5mC]*dT*dT*dT*kAeTeT*eA*eA; antisense) [Compound 1757569] ?
OUTPUT: 91

* * *

# Test system: human APOE RNA
# ASSAY_NAME: Dose-dependent inhibition of human APOE RNA in HepG2 cells, electroporation, 50,000 cells per well, RT-PCR normalized to GAPDH (Example 4, Tables 8-10)
# Assay type: cell-based
# ASSAY_SETUP: HepG2 cells, electroporation, 24-hour treatment, 20,000 nM, Table 8
Strand notation (5' to 3'): a small letter for the sugar, then the base; units joined by * are phosphorothioate-linked, units joined directly phosphodiester-linked; [ ] holds rarer units or linkages, { } end groups; capitals alone tell only the bases. [ms] = mesyl phosphoramidate linkage; e = 2'-O-(2-methoxyethyl) (MOE); k = constrained ethyl (cEt); [5mC] = 5-methylcytosine; d = 2'-deoxy (DNA)
# APOE RNA (% UTC) 20,000 nM values compiled below
Answer by giving the amount and then stating its unit.

Solved cases (2 shown):
1778123: modified oligonucleotide complementary to human APOE RNA (eA*e[5mC]eTeTeG*eG*dT*dG[ms]dA[ms]dA*dT*d[5mC]*dT*dT*dT*dA[ms]kTkT*eA*eA; antisense) [compound 1778123] : 5 % UTC
1778125: modified oligonucleotide complementary to human APOE RNA (eA*e[5mC]eTeTeGeG*dT*dG[ms]dA[ms]dA*dT*d[5mC]*dT*dT*dT*dA[ms]kTkT*eA*eA; antisense) [compound 1778125] : 3 % UTC

For the next question, use this substance.
INPUT: APOE RNA (% UTC) 20,000 nM for 1785599: modified oligonucleotide complementary to human APOE RNA (k[5mC]*kT*kT*dG[ms]dG[ms]dT[ms]dG[ms]dA[ms]dA[ms]dT[ms]d[5mC]*dT*dT*dT*dA*dT*kT*kA*dA[ms]kA; antisense) [compound 1785599] ?
OUTPUT: 2 % UTC

* * *

# APOE RNA (% control) Spinal Cord values compiled below
# Tested on: human APOE RNA
# ASSAY_NAME: Potency (dose response, ED50) in APOE C57BL/6NTac-Apoeem7250 knock-in mice, 4 weeks (Example 14)
# Format: in vivo
# ASSAY_SETUP: spinal cord, ICV dose 100 μg
Strand notation (5' to 3'): a small letter for the sugar, then the base; units joined by * are phosphorothioate-linked, units joined directly phosphodiester-linked; [ ] holds rarer units or linkages, { } end groups; capitals alone tell only the bases. [ms] = mesyl phosphoramidate linkage; e = 2'-O-(2-methoxyethyl) (MOE); k = constrained ethyl (cEt); [5mC] = 5-methylcytosine; d = 2'-deoxy (DNA)
Express it in % control; write the number only.

Solved cases (2 shown):
1785598: modified oligonucleotide complementary to human APOE RNA (k[5mC]*kT*kT*dG[ms]dG[ms]dT[ms]dG[ms]dA[ms]dA[ms]dT*d[5mC]*dT*dT*dT*dA*dT[ms]kT*kA*dA[ms]kA; antisense) [compound 1785598] : 65
1757575 (eA*e[5mC]eTeT*kG*kG*dT*dG[ms]dA[ms]dA[ms]dT*d[5mC]*dT*dT*dT*dA[ms]kT*eT*eA*eA; antisense) [Compound 1757575] : 40

INPUT: APOE RNA (% control) Spinal Cord for Aes^mCeoTeoTesGesGksTdsGdzAdzAdzTds^mCdsTdsTdsTdsAdzTksTksAesAe (eA*e[5mC]eTeT*eG*kG*dT*dG[ms]dA[ms]dA[ms]dT*d[5mC]*dT*dT*dT*dA[ms]kT*kT*eA*eA) [Compound No. 1757576] ?
OUTPUT: 23

INPUT: APOE RNA (% control) Spinal Cord for 1778130: modified oligonucleotide complementary to human APOE RNA (eA*e[5mC]eTeTeG*kG*dT*dG[ms]dA[ms]dA*dT*d[5mC]*dT*dT*dT*dA[ms]kTkT*eA*eA; antisense) [compound 1778130] ?
OUTPUT: 27

* * *

# System: human APOE RNA
# ASSAY_NAME: Dose-dependent reduction of human APOE RNA in HepG2 cells, electroporation, 20,000 cells per well, average of GAPDH- and PPIA-normalized results (Example 4, Table 12)
# Assay type: cell-based
# ASSAY_SETUP: 3,200 nM, HepG2, 20,000 cells per well
Strand notation (5' to 3'): a small letter for the sugar, then the base; units joined by * are phosphorothioate-linked, units joined directly phosphodiester-linked; [ ] holds rarer units or linkages, { } end groups; capitals alone tell only the bases. [ms] = mesyl phosphoramidate linkage; e = 2'-O-(2-methoxyethyl) (MOE); k = constrained ethyl (cEt); [5mC] = 5-methylcytosine; d = 2'-deoxy (DNA)
PROPERTY_LABEL: APOE RNA (% UTC)

1785617: modified oligonucleotide complementary to human APOE RNA (k[5mC]*dT[ms]dT[ms]kG*dG[ms]kT*dG[ms]dA[ms]dA[ms]dT[ms]d[5mC]*dT*dT*dT*dA*dT*kT*kA*dA[ms]kA; antisense) [compound 1785617] : 16 % UTC
1757575 (eA*e[5mC]eTeT*kG*kG*dT*dG[ms]dA[ms]dA[ms]dT*d[5mC]*dT*dT*dT*dA[ms]kT*eT*eA*eA; antisense) [Compound 1757575] : 27 % UTC
1785598: modified oligonucleotide complementary to human APOE RNA (k[5mC]*kT*kT*dG[ms]dG[ms]dT[ms]dG[ms]dA[ms]dA[ms]dT*d[5mC]*dT*dT*dT*dA*dT[ms]kT*kA*dA[ms]kA; antisense) [compound 1785598] : 9 % UTC

INPUT: What APOE RNA (% UTC) appears in the records for this substance with human APOE RNA? 1778131: modified oligonucleotide complementary to human APOE RNA (eA*e[5mC]eTeTeGkG*dT*dG[ms]dA[ms]dA*dT*d[5mC]*dT*dT*dT*dA[ms]kTkT*eA*eA; antisense) [compound 1778131]
OUTPUT: 25 % UTC
